Attribution: patent US20070219212A1

biological target: NS5B from the BK strain (genotype 1b) (Hepatitis C virus genotype 1b, UniProt P26663); construct: NS5B from the BK strain (genotype 1b) is expressed in E coli as a protein in which the 21 C-terminal amino acids are replaced; test: Hepatitis C polymerase (NS5B, BK strain) inhibition, radioactive filter assay; conditions: NS5B BK strain (genotype 1b)
Sequence (P26663 2420-2989): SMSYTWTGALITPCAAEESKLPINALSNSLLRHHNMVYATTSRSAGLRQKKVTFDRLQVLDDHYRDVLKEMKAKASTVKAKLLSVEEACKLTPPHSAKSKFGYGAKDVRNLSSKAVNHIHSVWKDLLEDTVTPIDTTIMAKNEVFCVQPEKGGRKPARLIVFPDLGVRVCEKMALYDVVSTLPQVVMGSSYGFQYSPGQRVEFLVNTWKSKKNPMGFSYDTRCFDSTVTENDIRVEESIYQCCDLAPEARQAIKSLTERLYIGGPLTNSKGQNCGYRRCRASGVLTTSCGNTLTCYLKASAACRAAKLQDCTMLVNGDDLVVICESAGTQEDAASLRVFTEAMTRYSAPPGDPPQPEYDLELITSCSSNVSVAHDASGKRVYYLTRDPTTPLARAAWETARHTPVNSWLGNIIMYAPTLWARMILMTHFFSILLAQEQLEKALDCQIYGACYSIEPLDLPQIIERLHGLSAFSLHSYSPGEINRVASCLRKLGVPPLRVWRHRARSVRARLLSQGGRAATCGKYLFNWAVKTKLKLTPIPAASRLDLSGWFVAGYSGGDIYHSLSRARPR
reportedEndpoint: IC50

- CCCC1(CC(=O)O)OCCc2c1[nH]c1c(C)c(OCc3cccnc3)cc(C#N)c21 (centres unmarked): < 0.5 µM
- CCCC1(CC(=O)O)OCCc2c1[nH]c1c(C)c(OCC3CCNCC3)cc(C#N)c21 (centres unmarked): < 0.5 µM
- CCC[C@]1(CC(=O)O)OCCc2c1[nH]c1c(C)c(OCc3ccnc(C)c3)cc(C#N)c21: < 0.5 µM
- CCCC1(CC(=O)O)OCCc2c1[nH]c1c(C)c(OCc3cc(Br)no3)cc(C#N)c21 (centres unmarked): < 0.5 µM
- CCCC1(CC(=O)O)OCCc2c1[nH]c1c(C)c(OCCOCc3ccccc3)cc(C#N)c21 (centres unmarked): < 0.5 µM
- CCCC1(CC(=O)O)OCCc2c1[nH]c1c(C)c(OC(C)c3cc(C)n(C)n3)cc(C#N)c21 (centres unmarked): < 0.5 µM
- CCCC1(CC(=O)O)OCCc2c1[nH]c1c(C)c(OCc3cc(C4CC4)on3)cc(C#N)c21 (centres unmarked): < 0.5 µM
- CCCC1(CC(=O)O)OCCc2c1[nH]c1c(C)c(OCc3conc3C)cc(C#N)c21 (centres unmarked): < 0.5 µM
- CCCC1(CC(=O)O)OCCc2c1[nH]c1c(C)c(OCc3ccn(CC)n3)cc(C#N)c21 (centres unmarked): < 0.5 µM
- CCC[C@@]1(CC(=O)O)OCCc2c1[nH]c1c(C)c(OCc3cc(C)on3)cc(C#N)c21: > 5 µM
- CCCC1(CC(=O)O)OCCc2c1[nH]c1c(C)c(OCc3ccnc(N)c3)cc(C#N)c21 (centres unmarked): < 0.5 µM
- CCCC1(CC(=O)O)OCCc2c1[nH]c1c(C)c(OCc3cc(C)nc(C)c3)cc(C#N)c21 (centres unmarked): < 0.5 µM
- CCCC1(CC(=O)O)OCCc2c1[nH]c1c(C)c(COc3ccccc3)cc(C#N)c21 (centres unmarked): 0.5 to 5 µM
- CCCC1(CC(=O)O)OCCc2c1[nH]c1c(C)c(OCc3cc[n+]([O-])cc3)cc(C#N)c21 (centres unmarked): < 0.5 µM
- CCCC1(CC(=O)O)OCCc2c1[nH]c1c(C)c(OCC(C)=NOCC)cc(C#N)c21 (centres unmarked) [Example 105]: < 0.5 µM
- CCCC1(CC(=O)O)OCCc2c1[nH]c1c(C)c(OCc3nsc(N(C)C)n3)cc(C#N)c21 (centres unmarked): < 0.5 µM
- CCCC1(CC(=O)O)OCCc2c1[nH]c1c(C)c(COCC)cc(C#N)c21 (centres unmarked): 0.5 to 5 µM
- CCCC1(CC(=O)O)OCCc2c1[nH]c1c(C)c(OCCOCC3CC3)cc(C#N)c21 (centres unmarked): < 0.5 µM
- CCCC1(CC(=O)O)OCCc2c1[nH]c1c(C)c(OCc3nc(C)ccc3OC)cc(C#N)c21 (centres unmarked): < 0.5 µM
- CCCC1(CC(=O)O)OCCc2c1[nH]c1c(C)c(OCCCc3cc(C)no3)cc(C#N)c21 (centres unmarked): < 0.5 µM
- CCCC1(CC(=O)O)OCCc2c1[nH]c1c(C)c(OCCOCC)cc(C#N)c21 (centres unmarked): < 0.5 µM
- CCCC1(CC(=O)O)OCCc2c1[nH]c1c(C)c(OCc3cc(C)nn3C)cc(C#N)c21 (centres unmarked): < 0.5 µM
- CCOCCOc1cc(C#N)c2c3c([nH]c2c1C)C(CC(=O)O)([C@@H](C)CC)OCC3 (mixture of isomers): < 0.5 µM
- CCCC1(CC(=O)O)OCCc2c1[nH]c1c(C)c(OCc3cc(C)n(CC)n3)cc(C#N)c21 (centres unmarked): < 0.5 µM
- CCCC1(CC(=O)O)OCCc2c1[nH]c1c(C)c(OCc3ccnc(COC)c3)cc(C#N)c21 (centres unmarked): < 0.5 µM
- CCCC1(CC(=O)O)OCCc2c1[nH]c1c(C)c(OCc3ccnc(NC(C)=O)c3)cc(C#N)c21 (centres unmarked): < 0.5 µM
- CCCC1(C(=O)O)OCCc2c1[nH]c1c(C)c(OCc3ccncc3)cc(C#N)c21 (centres unmarked): < 0.5 µM
- CCCC1(CC(=O)O)OCCc2c1[nH]c1c(C)c(CO[C@@H]3CCOC3)cc(C#N)c21 (mixture of isomers): 0.5 to 5 µM
- CCCC1(CC(=O)O)OCCc2c1[nH]c1c(C)c(OCC3CCSCC3)cc(C#N)c21 (centres unmarked): < 0.5 µM
- CCCC1(CC(=O)O)OCCc2c1[nH]c1c(C)c(O[C@@H]3CCNC3)cc(C#N)c21 (some centres unmarked): < 0.5 µM
- CCCC1(CC(=O)O)OCCc2c1[nH]c1c(C)c(OCc3cccnc3C)cc(C#N)c21 (centres unmarked): < 0.5 µM
- CCCC1(CC(=O)O)OCCc2c1[nH]c1c(C)c(OCc3cc(C4CC4)n(C)n3)cc(C#N)c21 (centres unmarked): < 0.5 µM
